- target-desc: T1, human immunoglobulin E (hIgE) (human, UniProt P01854-1 1-428)
- T1 construct: also called human IgE; Native IgE (Abcam)
- T1 sequence (P01854 whole entry): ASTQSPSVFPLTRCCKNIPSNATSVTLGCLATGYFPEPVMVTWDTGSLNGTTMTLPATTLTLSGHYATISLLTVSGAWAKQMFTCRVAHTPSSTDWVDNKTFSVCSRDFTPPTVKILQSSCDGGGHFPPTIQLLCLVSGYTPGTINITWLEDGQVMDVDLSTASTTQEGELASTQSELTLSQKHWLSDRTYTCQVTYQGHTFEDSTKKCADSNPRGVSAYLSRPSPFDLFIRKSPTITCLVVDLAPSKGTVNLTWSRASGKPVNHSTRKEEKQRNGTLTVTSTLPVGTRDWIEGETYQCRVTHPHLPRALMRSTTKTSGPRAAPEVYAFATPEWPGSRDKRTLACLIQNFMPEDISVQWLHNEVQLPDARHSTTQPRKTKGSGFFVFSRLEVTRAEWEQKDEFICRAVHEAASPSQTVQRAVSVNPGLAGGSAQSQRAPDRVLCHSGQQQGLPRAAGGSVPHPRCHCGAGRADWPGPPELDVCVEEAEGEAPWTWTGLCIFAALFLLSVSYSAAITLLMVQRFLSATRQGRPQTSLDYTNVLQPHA
- test-method-notes: SPR (Biacore), pH 6.0
assay-endpoint: koff (s⁻¹)
Please give a number only; it is taken to be in s⁻¹.

• OmaVH15G55H - VL3D28H (antibody, V domains shown, also called OmaVH15G55H VL3D25H) VH: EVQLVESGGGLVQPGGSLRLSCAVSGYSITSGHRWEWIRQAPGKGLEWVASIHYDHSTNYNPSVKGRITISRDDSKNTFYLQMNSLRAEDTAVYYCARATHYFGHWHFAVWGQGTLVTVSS VL: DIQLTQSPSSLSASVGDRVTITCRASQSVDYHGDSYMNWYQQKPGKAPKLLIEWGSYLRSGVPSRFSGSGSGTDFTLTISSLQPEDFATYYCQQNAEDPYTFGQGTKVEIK = 0.00117
• OmaVH15G55HW100b - VL3S31H (antibody, V domains shown) VH: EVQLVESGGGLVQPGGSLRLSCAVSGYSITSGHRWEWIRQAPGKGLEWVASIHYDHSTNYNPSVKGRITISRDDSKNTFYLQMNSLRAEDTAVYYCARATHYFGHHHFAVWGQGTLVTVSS VL: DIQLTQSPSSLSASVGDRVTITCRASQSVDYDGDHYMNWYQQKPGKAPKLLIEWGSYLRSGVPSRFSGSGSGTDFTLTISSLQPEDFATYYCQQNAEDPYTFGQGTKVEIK = 0.0986
• OmaVH15G55H - VL3S31H (antibody, V domains shown) VH: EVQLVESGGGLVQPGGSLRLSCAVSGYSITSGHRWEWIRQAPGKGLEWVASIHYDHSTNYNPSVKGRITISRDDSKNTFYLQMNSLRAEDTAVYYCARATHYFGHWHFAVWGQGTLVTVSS VL: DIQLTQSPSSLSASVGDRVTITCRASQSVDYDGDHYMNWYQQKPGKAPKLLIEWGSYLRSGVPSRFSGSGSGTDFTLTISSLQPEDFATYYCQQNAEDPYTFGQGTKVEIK = 0.00297

Next binder, please.
What does the record list as koff for OMA VH15 - VL3S31H (antibody, V domains shown) VH: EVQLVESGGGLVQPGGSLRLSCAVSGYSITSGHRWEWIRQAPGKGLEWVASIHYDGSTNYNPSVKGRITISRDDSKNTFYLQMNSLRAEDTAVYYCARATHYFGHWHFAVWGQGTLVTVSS VL: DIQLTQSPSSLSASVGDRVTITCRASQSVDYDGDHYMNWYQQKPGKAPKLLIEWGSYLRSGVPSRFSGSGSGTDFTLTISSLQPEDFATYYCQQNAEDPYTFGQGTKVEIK ?
0.00228
